biological target: Dimer of Gag-Pol polyprotein [489-587] (Human immunodeficiency virus 1, UniProt P04585); construct: 489-587; experiment: Protease Inhibition Assay
metric: pKi
Notebook: values listed as pKi are -log10 of the concentration (mol/L).

# pKi lookup, item O=C1N[C@H](CCc2ccccc2)[C@@H](O)[C@@H](Cc2ccccc2)N1Cc1ccccc1
7.18

New cases:
GET /values?readout=pKi&item= N/C(=N\O)c1cccc(CN2C(=O)N[C@H](CCc3ccccc3)[C@@H](O)[C@H]2Cc2ccccc2)c1
9.62
